Target: BaEcR (GAL4-EcR DEF with VP16-RXR-USP chimera) (Bemisia tabaci)
Sequence (A0A6M3RDR8 115-530): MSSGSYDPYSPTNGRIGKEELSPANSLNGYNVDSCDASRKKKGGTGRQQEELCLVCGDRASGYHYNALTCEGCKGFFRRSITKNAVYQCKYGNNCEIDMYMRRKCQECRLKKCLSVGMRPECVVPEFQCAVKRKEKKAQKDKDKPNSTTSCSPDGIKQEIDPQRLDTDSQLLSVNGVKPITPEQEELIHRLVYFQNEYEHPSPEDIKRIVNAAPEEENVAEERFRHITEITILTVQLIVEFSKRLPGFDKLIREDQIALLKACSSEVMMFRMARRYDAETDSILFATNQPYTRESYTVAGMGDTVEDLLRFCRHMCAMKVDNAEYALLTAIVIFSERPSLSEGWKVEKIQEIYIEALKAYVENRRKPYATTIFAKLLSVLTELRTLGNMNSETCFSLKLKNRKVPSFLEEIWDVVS
Sequence (P28702 1-533 partner): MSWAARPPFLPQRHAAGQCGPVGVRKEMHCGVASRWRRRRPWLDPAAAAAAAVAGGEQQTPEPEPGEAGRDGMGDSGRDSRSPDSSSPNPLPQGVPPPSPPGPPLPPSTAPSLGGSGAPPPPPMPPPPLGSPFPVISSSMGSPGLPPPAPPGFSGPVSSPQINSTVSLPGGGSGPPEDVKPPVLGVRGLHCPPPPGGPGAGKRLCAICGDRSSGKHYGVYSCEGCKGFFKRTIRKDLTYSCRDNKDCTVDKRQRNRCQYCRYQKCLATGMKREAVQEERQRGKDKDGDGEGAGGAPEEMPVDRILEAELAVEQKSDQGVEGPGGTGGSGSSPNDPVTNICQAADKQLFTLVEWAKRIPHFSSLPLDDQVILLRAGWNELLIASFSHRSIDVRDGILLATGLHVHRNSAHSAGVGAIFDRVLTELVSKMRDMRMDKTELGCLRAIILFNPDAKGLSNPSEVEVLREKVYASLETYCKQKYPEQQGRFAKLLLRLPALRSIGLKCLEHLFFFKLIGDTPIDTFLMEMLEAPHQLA
Assay: Two-hybrid gene switch assay, luciferase reporter, BaEcR, mouse NIH3T3 cells
Settings: EC50, FIG. 16, GAL4-EcR (DEF) / VP16-RXR-USP chimera
reported metric: EC50 (µM)
Numbers only, in µM.

| compound | target of assay | EC50 / µM |
| --- | --- | --- |
| CC(C)(O)CC[C@H]1OC(C)(C)O[C@]1(C)[C@H]1CC[C@@]2(O)C3=CC(=O)[C@@H]4C[C@@H](O)[C@@H](O)C[C@]4(C)[C@H]3CC[C@]12C [20-hydroxyecdysone-20,22-acetonide] | BaEcR (GAL4-EcR DEF with VP16-RXR-USP chimera) (Bemisia tabaci) | 8.57 |

Switching to the query record.
## Input Bench note: what EC50 did CC(C)(O)CC[C@@H](O)[C@](C)(O)[C@H]1CC[C@@]2(O)C3=CC(=O)[C@@H]4C[C@@H](O)[C@@H](O)C[C@]4(C)[C@H]3CC[C@]12C [Compound 20-hydroxyecdysone] show?
## Output 5.35

====

target: wild-type Drosophila melanogaster EcR (DmEcR; GAL4-EcR DEF with VP16-RXR-USP chimera) (Drosophila melanogaster); assay: Two-hybrid gene switch assay, luciferase reporter, wild-type DmEcR, mouse NIH3T3 cells; type: cell-based; settings: EC50, FIG. 14A/14B, GAL4-EcR(DEF) with VP16-RXR-USP chimera
Sequence (P34021 with tags, fused parts or gaps limits assumed): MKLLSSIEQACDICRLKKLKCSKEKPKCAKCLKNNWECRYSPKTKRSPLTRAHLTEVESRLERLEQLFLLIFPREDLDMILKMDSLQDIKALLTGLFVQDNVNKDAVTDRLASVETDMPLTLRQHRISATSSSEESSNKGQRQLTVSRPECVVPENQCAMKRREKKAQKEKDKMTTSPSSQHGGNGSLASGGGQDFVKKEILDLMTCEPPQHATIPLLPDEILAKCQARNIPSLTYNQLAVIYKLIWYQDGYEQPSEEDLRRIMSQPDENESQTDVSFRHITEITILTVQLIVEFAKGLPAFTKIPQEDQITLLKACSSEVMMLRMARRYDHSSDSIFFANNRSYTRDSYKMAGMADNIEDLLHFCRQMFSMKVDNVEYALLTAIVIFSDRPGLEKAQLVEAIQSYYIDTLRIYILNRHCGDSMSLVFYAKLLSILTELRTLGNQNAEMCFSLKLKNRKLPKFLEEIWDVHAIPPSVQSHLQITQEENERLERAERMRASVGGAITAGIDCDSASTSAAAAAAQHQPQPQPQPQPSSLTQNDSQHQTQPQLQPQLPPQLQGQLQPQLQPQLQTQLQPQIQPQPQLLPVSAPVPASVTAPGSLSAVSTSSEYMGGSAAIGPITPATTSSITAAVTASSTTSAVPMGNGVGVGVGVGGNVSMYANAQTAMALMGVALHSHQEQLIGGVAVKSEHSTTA
pEC50: −log10 of the molar value.
reported metric: pEC50

| molecule | pEC50 |
| --- | --- |
| CC1(C)OC(=O)C=C1CC(O)C(C)(O)C1CCC2(O)C3=CC(=O)C4CC(O)C(O)CC4(C)C3CCC12C (stereo not drawn) | < 4.48 |
| CC(C)(O)CCC(O)C(C)(O)C1CCC2(O)C3=CC(=O)C4CC(O)CCC4(C)C3CCC12C (stereo not drawn) [Compound 2-deoxy-20-hydroxyecdysone] | < 4.48 |

## Input Give the measured pEC50 of CC(C)(O)C(CCC(C)(O)C1CCC2(O)C3=CC(=O)C4CC(O)C(O)CC4(C)C3CCC12C)OC(=O)c1ccc[nH]1 (stereo not drawn) .
## Output ~6.30

====

Target: wild-type CfEcR (GAL4-CfEcR-DEF with VP16-RXR-USP chimera) (Choristoneura fumiferana)
Sequence (O77255 219-541): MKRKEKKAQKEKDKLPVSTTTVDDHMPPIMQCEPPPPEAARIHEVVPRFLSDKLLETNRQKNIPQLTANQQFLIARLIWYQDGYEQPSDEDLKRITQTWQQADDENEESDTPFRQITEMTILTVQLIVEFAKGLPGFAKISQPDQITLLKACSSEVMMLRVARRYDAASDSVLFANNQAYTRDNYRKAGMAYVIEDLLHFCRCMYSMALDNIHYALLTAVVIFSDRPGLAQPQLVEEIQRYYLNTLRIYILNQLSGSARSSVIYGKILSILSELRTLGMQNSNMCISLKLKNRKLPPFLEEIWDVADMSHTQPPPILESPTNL
Sequence (P28702 1-533 partner): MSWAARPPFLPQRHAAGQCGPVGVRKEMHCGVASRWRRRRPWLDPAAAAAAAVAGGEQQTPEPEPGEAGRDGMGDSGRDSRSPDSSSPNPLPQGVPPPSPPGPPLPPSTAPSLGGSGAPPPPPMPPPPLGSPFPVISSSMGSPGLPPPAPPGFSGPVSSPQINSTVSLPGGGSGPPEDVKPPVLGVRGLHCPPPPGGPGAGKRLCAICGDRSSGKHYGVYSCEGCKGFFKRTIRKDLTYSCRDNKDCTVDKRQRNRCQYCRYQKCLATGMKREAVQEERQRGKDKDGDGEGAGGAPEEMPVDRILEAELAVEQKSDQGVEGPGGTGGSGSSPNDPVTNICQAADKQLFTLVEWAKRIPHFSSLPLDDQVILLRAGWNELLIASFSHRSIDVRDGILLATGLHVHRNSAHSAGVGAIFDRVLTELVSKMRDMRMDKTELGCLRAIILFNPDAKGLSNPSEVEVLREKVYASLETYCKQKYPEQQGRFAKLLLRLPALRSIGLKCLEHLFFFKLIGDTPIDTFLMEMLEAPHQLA
Assay: Two-hybrid gene switch assay, luciferase reporter, wild-type CfEcR, mouse NIH3T3 cells
pEC50: −log10 of the molar value.
reported metric: pEC50

Below: 5 molecules and their reported pEC50.
| molecule | pEC50 |
| --- | --- |
| CC(C)(O)CCC(=O)[C@](C)(O)[C@H]1CC[C@@]2(O)C3=CC(=O)[C@@H]4C[C@@H](O)[C@@H](O)C[C@]4(C)[C@H]3CC[C@]12C [Compound 22-dehydro-20-hydroxyecdysone] | < 4.48 |
| C=CCO[C@H](CCC(C)(C)O)[C@](C)(O)C1CC[C@@]2(O)C3=CC(=O)C4C[C@@H](O)[C@@H](O)CC4(C)C3CCC12C (stereo partly drawn) | < 4.48 |
| C[C@@H]1C(=O)O[C@H](C)[C@H]1C[C@@H](O)[C@](C)(O)[C@H]1CC[C@@]2(O)C3=CC(=O)[C@@H]4C[C@@H](O)[C@@H](O)C[C@]4(C)[C@H]3CC[C@]12C | ~6.00 |
| CC(C)(O)CC[C@@H](O)[C@](C)(O)[C@H]1CC[C@@]2(O)C3=CC(=O)[C@@H]4C[C@@H](O)[C@@H](O)C[C@]4(C)[C@H]3[C@H](O)C[C@]12C | < 4.48 |
| CC(C)(O)CC[C@@H](OCc1ccccc1)[C@](C)(O)C1CC[C@@]2(O)C3=CC(=O)C4C[C@@H](O)[C@@H](O)CC4(C)C3CCC12C (stereo partly drawn) | < 4.48 |

Look up pEC50 for the entries below, preserving their order.
1. CO[C@@]12CC[C@H]([C@@](C)(O)[C@H](O)CCC(C)C)[C@@]1(C)CC[C@H]1C2=CC(=O)[C@@H]2C[C@@H](O)[C@@H](O)C[C@@]21C
2. CC(C)(O)CCC(O)C(C)(O)C1CCC2(O)C3=CC(=O)C4CC(O)CCC4(C)C3CCC12C (stereo not drawn) [Compound 2-deoxy-20-hydroxyecdysone]
3. CO[C@H](CCC(C)(C)OC)[C@](C)(O)[C@H]1CC[C@@]2(O)C3=CC(=O)[C@@H]4C[C@@H](O)[C@@H](O)C[C@]4(C)[C@H]3CC[C@]12C
4. C=C(C)CC[C@@H](O)[C@](C)(O)[C@H]1CC[C@@]2(O)C3=CC(=O)[C@@H]4C[C@@H](O)[C@@H](O)C[C@]4(C)[C@H]3CC[C@]12C

## Output
["~4.70", "< 4.48", "< 4.48", "~4.92"]

====

biological target: wild-type Drosophila melanogaster EcR (DmEcR; GAL4-EcR DEF with VP16-RXR-USP chimera) (Drosophila melanogaster); test: Two-hybrid gene switch assay, luciferase reporter, wild-type DmEcR, mouse NIH3T3 cells; type: cell-based; conditions: FIG. 14A/14B, GAL4-EcR(DEF) with VP16-RXR-USP chimera, read-out: EC50
reported metric: EC50

| compound | EC50 |
| --- | --- |
| CC(C)(O)CC[C@@H](O)[C@](C)(O)[C@H]1CC[C@@]2(O)C3=CC(=O)[C@H]4C[C@@H](O)[C@@H](O)C[C@]4(C)[C@H]3CC[C@]12C [(5a-H)-20-hydroxyecdysone] | > 33 µM |

## Input Consider the compound shown here: CC(C)(O)CC[C@@H](O)[C@](C)(O)[C@H]1CC[C@@]2(O)C3=CC(=O)[C@@H]4C[C@H](O)[C@@H](O)C[C@]4(C)[C@H]3CC[C@]12C What is its recorded EC50?
## Output ~20 µM
